Molecular target: COX-1 (ovine) (Ovis aries)
Sequence (P05979 25-600): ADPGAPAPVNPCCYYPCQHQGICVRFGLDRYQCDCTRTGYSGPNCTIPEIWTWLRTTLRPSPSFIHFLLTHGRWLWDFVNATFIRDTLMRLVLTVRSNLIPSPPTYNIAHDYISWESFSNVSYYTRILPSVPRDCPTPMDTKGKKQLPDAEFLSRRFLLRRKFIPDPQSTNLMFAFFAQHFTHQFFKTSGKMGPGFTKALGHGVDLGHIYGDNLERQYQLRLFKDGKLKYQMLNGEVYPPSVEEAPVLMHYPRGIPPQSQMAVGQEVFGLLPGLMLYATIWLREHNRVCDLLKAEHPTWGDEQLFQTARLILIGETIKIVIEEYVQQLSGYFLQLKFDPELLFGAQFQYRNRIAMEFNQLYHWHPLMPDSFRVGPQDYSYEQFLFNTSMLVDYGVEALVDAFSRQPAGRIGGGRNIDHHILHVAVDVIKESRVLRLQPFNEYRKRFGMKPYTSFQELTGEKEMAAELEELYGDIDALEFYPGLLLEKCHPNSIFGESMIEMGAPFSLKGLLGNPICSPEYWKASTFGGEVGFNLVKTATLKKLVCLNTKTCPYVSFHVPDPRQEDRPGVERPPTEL

| Compound | IC50 |
| --- | --- |
| C[C@H](C(=O)O)c1cccc(C(=O)c2ccccc2)c1 [(S)-Ket, (S)-Ketoprofen] | 5.1 µM |

###

test: In vitro FLS cell toxicity assay; assay type: cell-based; conditions: Sprague Dawley, rat

| Molecule | IC50 at 48 h |
| --- | --- |
| C[C@H](C(=O)O)c1cccc(C(=O)c2ccccc2)c1 [(S)-Ket, (S)-Ketoprofen] | 159 µg/mL |

Taken from paper PMC5485419.
